Below, each entry is listed alongside its reported MIC.
- System: Staph. aureus Oxford
- measurementNotes: Antibacterial activity (MIC) against Staph. aureus Oxford
- Type: cell-based
- testParameters: Staphylococcus aureus; Staph Aureus Oxford; table; read-out: Antibacterial activities (MIC)
// return numeric value only (unit: µg/mL, not printed)

- compound: "CO[C@@]1(NC(=O)C(NC(=O)Nc2cnc(Nc3ccc(S(N)(=O)=O)cc3)nc2O)c2ccco2)C(=O)N2[C@@H](C(=O)O)C(C)(C)S[C@@H]21 (stereo partly drawn)"
  targetOrSystem: "Staph. aureus Oxford"
  MIC / µg/mL: 16
- compound: "CO[C@@]1(NC(=O)[C@@H](NC(=O)Nc2cnc(Nc3ccc(S(N)(=O)=O)cc3)nc2O)c2cccs2)C(=O)N2[C@@H](C(=O)O)C(C)(C)S[C@@H]21"
  targetOrSystem: "Staph. aureus Oxford"
  MIC / µg/mL: 25
- compound: "CO[C@@]1(NC(=O)C(NC(=O)Nc2cnc(Nc3ccc(S(N)(=O)=O)cc3)nc2O)c2ccc(F)cc2)C(=O)N2[C@@H](C(=O)O)C(C)(C)S[C@@H]21 (stereo partly drawn)"
  targetOrSystem: "Staph. aureus Oxford"
  MIC / µg/mL: 64
- compound: "CO[C@@]1(NC(=O)[C@H](NC(=O)Nc2cnc(Nc3ccc(S(N)(=O)=O)cc3)nc2O)c2cccs2)C(=O)N2[C@@H](C(=O)O)C(C)(C)S[C@@H]21"
  targetOrSystem: "Staph. aureus Oxford"
  MIC / µg/mL: 10

Kindly review the next compound as well.
Find the recorded MIC belonging to CO[C@@]1(NC(=O)C(NC(=O)Nc2cnc(Nc3ccc(S(N)(=O)=O)cc3)nc2O)c2ccccc2F)C(=O)N2[C@@H](C(=O)O)C(C)(C)S[C@@H]21 (stereo partly drawn) and report it.
16

Data origin, for the record: patent EP0091755A1
